I'd be grateful if you could share measured T½ for these entries.
Molecular target: T1, hPRLR.mmh (soluble monomeric human PRLR) (human)
T1 construct: soluble monomeric construct
T1 chain: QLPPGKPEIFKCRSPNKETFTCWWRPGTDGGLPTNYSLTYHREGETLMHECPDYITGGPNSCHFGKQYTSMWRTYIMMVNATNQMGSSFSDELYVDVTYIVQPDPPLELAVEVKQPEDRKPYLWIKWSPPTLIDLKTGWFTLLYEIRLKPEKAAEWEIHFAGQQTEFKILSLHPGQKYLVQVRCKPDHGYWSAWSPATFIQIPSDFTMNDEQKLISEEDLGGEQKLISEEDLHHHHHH
Assay: SPR, 37C, mAb capture

Some solved entries appear below for comparison.
1. H1H6801P (antibody, human IgG1, V domains shown, human IgG1 Fc (H1H)) VH: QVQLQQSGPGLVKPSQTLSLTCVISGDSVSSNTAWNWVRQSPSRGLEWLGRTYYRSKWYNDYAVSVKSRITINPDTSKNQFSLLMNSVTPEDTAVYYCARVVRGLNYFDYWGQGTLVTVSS VL: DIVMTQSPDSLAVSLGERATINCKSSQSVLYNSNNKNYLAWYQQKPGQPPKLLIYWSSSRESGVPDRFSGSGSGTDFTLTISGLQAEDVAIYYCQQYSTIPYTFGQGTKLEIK	3 min
2. H1H6958N2 (antibody, human IgG1, V domains shown, also called H2M6958N2) VH: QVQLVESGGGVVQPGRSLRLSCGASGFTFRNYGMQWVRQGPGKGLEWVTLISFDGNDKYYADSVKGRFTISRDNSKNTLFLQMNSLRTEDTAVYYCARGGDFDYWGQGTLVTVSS VL: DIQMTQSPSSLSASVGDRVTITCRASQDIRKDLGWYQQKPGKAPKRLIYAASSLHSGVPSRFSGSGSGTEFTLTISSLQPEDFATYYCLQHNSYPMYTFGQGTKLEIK	8.8 min

Each of the following entries comes with a recorded value; kindly state T½ for each.
1. H1H6804P (antibody, human IgG1, V domains shown, human IgG1 Fc (H1H)) VH: QVTLKESGPVLVKPTQTLSLTCTVSGFSLSDAGMGVSWIRQPPGKALEWLAHIFSNDGKSYSTSLKSRLTISKDTSKRQVVLTMTNMDPVDTATYYCARIRTGTYSLYLDYWGQGTLVTVSS VL: DIQMTQSPSSLSASVGDRVTITCRASQSINSYLNWYQQKPGKAPKLLLYFASSLQSGVPSRFSGSGSGTDFTLTISSLQPEDFASYYCQESYSTPWTFGQGTKVEIK
2. H1H6803P (antibody, human IgG1, V domains shown, human IgG1 Fc (H1H)) VH: EVQLVESGGGVVRPGGSLRLSCAASGFKFDDYGMTWVRHVPGKGLEWVSGINWNGGRTGYTDSVKGRFTISRDNAKNSLYLQMNSLRAEDTALYHCAGARRDAFDIWGQGTMVTVSS VL: DIQMTQSPSSLSASIGDRVTITCRASQNIIKYLNWYQQNAGKAPKLLIYTASSLQSGVPSRFSGSGSGTDFTLTISSLQPEDFATYYCQQSSSSPYTFGQGTKLEIK

1. 3 min
2. 32 min

Tell me the measured T½ of H1H6967N (antibody, human IgG1, V domains shown, also called H2M6967N) VH: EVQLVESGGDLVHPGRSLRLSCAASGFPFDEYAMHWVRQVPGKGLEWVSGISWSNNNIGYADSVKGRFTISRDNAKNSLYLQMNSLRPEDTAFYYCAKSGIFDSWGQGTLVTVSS VL: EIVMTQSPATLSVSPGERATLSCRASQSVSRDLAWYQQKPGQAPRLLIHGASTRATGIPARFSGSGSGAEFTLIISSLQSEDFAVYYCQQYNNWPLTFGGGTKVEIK , please.
12.4 min
